Provenance of the data: paper PMC6095608

Target or test system: MATE2-K (Homo sapiens, UniProt Q86VL8)
Construct: expressed in transfected cells; host or cells: HEK293 (transient, HEK-MATE2-K)
Sequence (Q86VL8 1-566 isoform Q86VL8-3): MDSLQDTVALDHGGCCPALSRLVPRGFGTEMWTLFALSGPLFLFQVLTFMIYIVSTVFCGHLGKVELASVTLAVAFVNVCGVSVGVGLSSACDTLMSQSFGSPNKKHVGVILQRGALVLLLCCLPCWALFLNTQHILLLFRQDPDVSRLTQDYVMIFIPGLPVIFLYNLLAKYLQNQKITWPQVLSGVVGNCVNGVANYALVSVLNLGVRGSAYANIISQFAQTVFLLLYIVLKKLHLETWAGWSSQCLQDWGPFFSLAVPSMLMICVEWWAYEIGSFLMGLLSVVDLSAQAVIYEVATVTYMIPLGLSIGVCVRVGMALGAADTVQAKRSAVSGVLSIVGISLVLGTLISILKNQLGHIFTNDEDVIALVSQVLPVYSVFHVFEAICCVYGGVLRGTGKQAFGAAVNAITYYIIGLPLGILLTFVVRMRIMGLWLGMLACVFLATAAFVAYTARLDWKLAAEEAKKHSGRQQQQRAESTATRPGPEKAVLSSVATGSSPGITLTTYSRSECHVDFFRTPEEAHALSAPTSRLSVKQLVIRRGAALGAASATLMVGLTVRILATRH
Test name: Inhibition of net [14C]-metformin uptake in HEK-MATE2-K cells
Format: cell-based
Condition info: HEK 293 cells expressing MATE2-K (HEK-MATE2-K), probe [14C]-metformin (50 μM), 50 μM efavirenz (highest tested), 50 μM metformin, p = 0.119, read-out: Inhibition of MATE2-K-mediated metformin transport
Endpoint label: inhibition at 3 min, 50 μM

Qu. What value of measured inhibition at 3 min, 50 μM is listed for O=C1Nc2ccc(Cl)cc2[C@@](C#CC2CC2)(C(F)(F)F)O1 ?
Ans. 48.1%
